Tested on: IGROV1 ovarian
assayNotes: NCI tumour cell line growth inhibition, 48 h
The reader will find reported TGI values listed item by item below.
observable: TGI

1) COc1ccc(/C=C2\N=C(NN)N=C2Cl)cc1 :: > 100 µM
2) CN(CCCl)c1ccc(/C=C/C2=[N+](C)c3ccccc3C2(C)C)cc1 :: 18.6 µM
3) Cc1c2c(n(CCN(C)C)c1C)NN=C(C#N)S2(=O)=O :: > 100 µM
4) C=CCN(C)CN(C)c1nc(N(C)C)nc(N(C)C)n1 :: > 100 µM
5) CC(C)NCCC(O)c1cc2ccccc2o1 (centres undefined) :: > 100 µM
6) OC(c1ccccn1)C1CNc2ccccc21 (centres undefined) :: > 100 µM
7) O=C1C2c3[nH]c4ccccc4c3[C@@H]3CCCCC3C2C(=O)N1c1ccccc1 (some centres undefined) :: 74.8 µM
8) O=C(/C=C/c1ccc(O)c(O)c1O)OCCc1ccccc1 :: 84.5 µM
9) CSc1nc2[nH]c(=O)c(C)nc2c(=O)[nH]1 :: > 100 µM
10) O=C=NCCCCCCN1C(=O)N2C(c3ccccc3)N(CCCCCCN=C=O)C(=O)N2C1c1ccccc1 (centres undefined) :: > 100 µM
11) O=c1cc(-c2ccc(Cl)cc2)oc2cc(OCCCOc3ccc4c(=O)cc(-c5ccc(Cl)cc5)oc4c3)ccc12 :: > 100 µM
12) C=C(Cl)C(=C)CCC(Cl)C(C)C (centres undefined) :: > 100 µM
13) O=C([O-])c1ccc(C(=O)[O-])cc1.O=C([O-])c1ccc(C(=O)[O-])cc1.[Mo+2].[Mo+2] :: > 100 µM
14) COc1ccc(CNc2nc3c(NC(C)=O)cc(C(F)(F)F)cc3nc2-c2ccccc2)cc1OC :: > 100 µM
15) N#CC1(C=O)c2ccccc2C=CN1C(=O)c1ccccc1 (centres undefined) :: > 100 µM
16) N[C@@H]1CCCN(c2c(/C=C3\SC(=O)NC3=O)cccc2-c2ccccc2)C1 :: 35.1 µM
17) COc1cccc2[nH]c(-c3ccccn3)nc12 :: > 100 µM
18) COc1cc(/C=C2/C(=O)N(C(=O)c3ccc(Cl)cc3)N=C2C)cc(OC)c1OC :: > 100 µM
19) O=C(CCN1CCOCC1)Nc1ccc2sc3ccccc3c(=O)c2n1 :: > 100 µM
20) C#Cc1cccc(Nc2nc3ccc([N+](=O)[O-])cc3nc2Nc2cccc(C#C)c2)c1 :: 1.3 µM
21) O=C(NNC(=O)c1cc(/C=C/c2cccc([N+](=O)[O-])c2)[nH]c(=S)n1)Nc1ccc(Cl)cc1 :: > 100 µM
22) CN(C)c1ccc(/C=N\N2C(=O)c3ccccc3C2=O)cc1 :: > 100 µM
23) O=C(Oc1ccccc1Cl)c1ccccc1Nc1ccnc(C(F)(F)F)c1 :: > 100 µM
24) O=C(O)c1ccccc1/C=N/NC1=NCCCCN1 :: > 100 µM
25) C=CCNC1=C2C[C@@H](C)C[C@@H](OC)[C@H](OC(=O)CN)[C@H](C)/C=C(\C)[C@@H](OC(N)=O)[C@H](OC)/C=C\C=C(/C)C(=O)NC(=CC1=O)C2=O :: 15.5 µM
26) NC(=Nc1ccc(O)cc1)S(=O)O :: > 100 µM
27) NC(CCOCCP(=O)(O)CCOCCC(N)C(=O)O)C(=O)O (centres undefined) :: > 100 µM
28) COC(=O)[C@@]12OC[C@]34C([C@@H](O)C1O)[C@@]1(C)CC(=O)C(OC(=O)/C=C(/c5ccccc5)C(F)(F)F)=C(C)C1C[C@H]3OC(=O)[C@H](O)[C@H]42 (some centres undefined) :: 21.2 µM
29) OC1CN2Cc3cc4c(cc3[C@]13C=C[C@@H](O)CC23)OCO4 (some centres undefined) :: > 100 µM
30) COC(=O)[C@@H]1C[C@H]([Se]c2ccccc2)CN1C(=O)OCc1ccccc1 :: > 100 µM
31) O=[N+]([O-])/C(C(Cl)=C(Cl)Cl)=C(/Sc1ccccc1)N1CCCCC1 :: > 100 µM
32) COC12CC(=O)C(C(C)=O)=C(O)C1(C)c1c(OC(C)=O)c(C)c(O)c(C(C)=O)c1O2 (centres undefined) :: > 100 µM
33) COc1ccccc1S(=O)(=O)Nc1ccc2c(c1)CN(C)C(=O)N2 :: > 100 µM
34) CCc1c(Cc2cc(C)cc(C)c2)n2c(nc1=O)SCC2CBr (centres undefined) :: > 50 µM

###

Tested on: 786-0 renal
assayNotes: NCI tumour cell line growth inhibition, 48 h
Listed below: TGI values for each entry.
observable: TGI

1) CC(C)C(/C=C/c1ccc(Br)cc1)=N\NC(N)=O :: > 100 µM
2) Cc1ccsc1/C=N/Nc1nncc2ccccc12 :: > 100 µM
3) O=[N+]([O-])c1ccc2ncccc2c1Cl :: 20.4 µM
4) CCCCCCCCCCCCOC1C(CNC(=O)C2OC3OC(C)(C)OC3C2NC(=O)CN2CCCCCC2)OC2OC(C)(C)OC21 (stereo unspecified) :: 23.4 µM
5) CNCCCNc1nc2ccccc2c2c(=O)c3cc(Cl)ccc3sc12 :: 3.2 µM
6) O=C(c1ccccc1)c1sc2c(=O)c(C(=O)c3ccccc3)c(C(=O)c3ccccc3)sc2c(=O)c1C(=O)c1ccccc1 :: > 100 µM
7) C=CCN1C(=O)CS/C1=N/NC(=O)C(O)(c1ccccc1)c1ccccc1 :: > 10 µM
8) NC(=O)NC(=O)c1cccc(NC(=O)CBr)c1 :: < 0.0333 µM
9) CCCCC(=O)Oc1ccc2c(C)cc(=O)oc2c1 :: > 100 µM
10) COc1ccc(C(=O)/C=C/c2ccc(OCC(=O)N3CCN(c4ccccc4)CC3)cc2)cc1 :: > 77.3 µM
11) COc1ccc(-c2cc(=O)c3c(O)cc(C)cc3o2)cc1OC :: > 100 µM
12) Cc1ccc(O)c(C(=O)CCCC(=O)c2cc(C)ccc2O)c1 :: > 100 µM
13) O=C(O)c1ccccc1/C=N/NC1=NCCCCN1 :: > 100 µM
14) COc1cc(N(CCC#N)CCC#N)ccc1/C(N=Nc1ccccc1)=N/NC(=O)c1cc(Br)ccc1O :: > 100 µM
15) CCC(C(=O)[O-])C(=O)[O-].CCC(C(=O)[O-])C(=O)[O-].N.N.NCCCCCCN.[Pt+4].[Pt+4] :: 14.5 µM
16) CS(=O)(=O)CCNCc1ccc(-c2ccc3ncnc(Nc4ccc(OCc5ccccc5)c(Cl)c4)c3c2)o1 :: 8.58 µM
17) C=CCN(C)CN(C)c1nc(N(C)C)nc(N(C)C)n1 :: > 100 µM
18) OC(c1ccccn1)C1CNc2ccccc21 (stereo unspecified) :: > 100 µM
19) CCCCCC/C=C\CCCCCCCCCC1=CC(=O)C=C(OC)C1=O :: 17 µM
20) CN(C)c1n/c(=N/c2ncn[nH]2)ss1 :: > 100 µM
21) NC(=Nc1ccc(O)cc1)S(=O)O :: > 100 µM
22) COc1ccc([C@@]23OC[C@@H]4[C@@H](OC[C@@H]42)c2cc(OC)c(OC)cc23)cc1OC :: > 100 µM
23) COc1cc2cc(C(=O)N3CC(CCl)c4ccccc43)[nH]c2c(OC)c1OC (stereo unspecified) :: > 100 µM
24) CC(=O)NNc1nc(C)c(C(/C=C/c2ccc(Cl)cc2)=N/NC(=O)C[N+](C)(C)C)s1 :: > 100 µM
25) Nc1nc(Cl)c2nnn(CC3CCC(CO)C3)c2n1 (stereo unspecified) :: > 100 µM
26) NC(=O)/C=C/NC(=O)/C=N\O :: > 100 µM
27) CCC1CCc2nc3sc(C(=O)Nc4ccccc4C)c(N)c3cc2C1 (stereo unspecified) :: > 100 µM
28) O=C1CCc2c(sc3[nH]c(=S)n(Cc4ccccc4)c(=O)c23)C1 :: > 100 µM
29) Cc1cc(C)c(S(=O)(=O)ONC(=O)OC(C)(C)C)c(C)c1 :: > 100 µM
30) O=[N+]([O-])c1ccc(Sc2c3ccccc3nc3ccccc23)nc1 :: 4.25 µM
31) CC1OC(OC2C(O)COC(OC3C(C)OC(OC4C(OC(=O)[C@]56CCC(C)(C)C[C@@H]5C5=CCC7[C@@]8(C)C[C@H](O)[C@H](OC9OC(CO)C(O)C(OC%10OC(CO)C(O)C(O)C%10O)C9O)[C@@](C)(CO)[C@@H]8CC[C@@]7(C)[C@]5(C)CC6)OCC(O)C4O)C(O)C3O)C2O)C(O)C(O)C1O (stereo partly specified) :: 30 µM

###

Tested on: UACC-257 melanoma
assayNotes: NCI tumour cell line growth inhibition, 48 h
observable: GI50

1) Cc1cc(C)nc(SC2=C(Nc3cccc(Cl)c3C)C(=O)N(Cc3ccccc3)C2=O)n1 :: > 160 µM
2) N#Cc1ccc(C(c2ccc(C#N)cc2)n2cncn2)cc1 :: > 5000 µM
3) Cc1ccc(S(=O)(=O)Cc2nc(-c3ccc(C(=O)NCc4cccnc4)cc3)oc2C)cc1 :: > 100 µM
4) O=C1CCc2c(sc3[nH]c(=S)n(Cc4ccccc4)c(=O)c23)C1 :: 2.36 µM
5) C[C@H]1C(Oc2ccc(O)cc2)OC2OC3(C)CCC4[C@H](C)CCC1C24OO3 (stereo partly drawn) :: 13.1 µM
6) CCCCn1sc(=O)n(Cc2ccc(CNC(=O)OCc3ccc4c(Br)cc(Br)c(O)c4n3)cc2)c1=O :: > 100 µM
7) CCCCC#CC#Cc1cccc(=O)o1 :: 22.1 µM
8) C#CCOc1cccc(Nc2ncnc3ccc(NC(=O)CCl)cc23)c1 :: 7.49 µM
9) Nc1c(C(=O)Nc2ccccc2F)sc2nc3c(cc12)C(=O)CCC3 :: > 100 µM
10) COc1ccc(-c2csc(-c3cc(Cl)cc(Cl)c3Cl)n2)cc1 :: 62.7 µM
11) O=C1/C(=C/c2ccccc2)CN(C(=O)OCc2ccccc2)C/C1=C\c1ccccc1 :: 9.19 µM
12) COc1cc2nc3cc([N+](=O)[O-])ccc3c(NCCCNCC(C)(C)O)c2cc1OC :: 1.62 µM
13) O=C(CCCCCCSc1nc(-c2ccc(Cl)cc2)cc(-c2ccc(Cl)cc2)n1)NO :: 2.15 µM

The measured values listed here are drawn from PubChem BioAssay (NCI).
